Molecular target: Prostaglandin D2 receptor 2 (Homo sapiens, UniProt Q9Y5Y4)
Sequence (Q9Y5Y4 whole entry): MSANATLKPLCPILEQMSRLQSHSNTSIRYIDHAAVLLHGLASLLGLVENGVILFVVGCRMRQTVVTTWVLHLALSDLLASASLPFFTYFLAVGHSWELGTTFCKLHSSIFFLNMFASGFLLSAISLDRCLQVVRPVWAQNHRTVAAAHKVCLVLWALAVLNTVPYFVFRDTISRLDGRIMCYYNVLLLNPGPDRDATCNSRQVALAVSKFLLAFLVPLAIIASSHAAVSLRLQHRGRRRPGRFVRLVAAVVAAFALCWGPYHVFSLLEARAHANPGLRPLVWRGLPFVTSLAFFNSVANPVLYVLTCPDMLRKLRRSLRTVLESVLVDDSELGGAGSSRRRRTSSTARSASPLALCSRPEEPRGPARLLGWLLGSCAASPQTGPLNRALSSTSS
Assay: biochemical
Description: Displacement of [3H]PGD2 from human CRTh2 expressed in HEK cell membranes after 60 mins by scintillation counting method
Quantity: pKi
Reminder that pKi means the negative base-10 logarithm of the concentration expressed in mol/L.

In the examples that follow, each entry is paired with its recorded pKi.
Which measured pKi value corresponds to `O=C(O)CCC(=O)N(C1CC1)[C@H]1c2ccccc2N(C(=O)c2cccc(OC(F)(F)F)c2)[C@H]2CC[C@H]21` ?
8.30

Here is the next compound: O=C(O)CCC(=O)N(CC1CCC1)[C@H]1c2ccccc2N(C(=O)c2ccc(OC(F)(F)F)cc2)[C@H]2CCCC12 (single isomer, unassigned)
8.05

Here is the next compound: `CC(C)(CC(=O)N(C1CC1)[C@H]1c2ccccc2N(C(=O)OCc2ccccc2)[C@H]2CCC[C@H]21)C(=O)O`
5.11

Here is the next compound: O=C(O)CCC(=O)N(C1CC1)[C@H]1c2ccccc2N(C(=O)c2ccc(OC(F)(F)F)cc2)[C@H]2CCCC21 (single isomer, unassigned)
8.15

More entries:
Which measured pKi value corresponds to `O=C(O)CCC(=O)N(C1CC1)[C@H]1c2ccc(Cl)cc2N(C(=O)c2ccc(OC(F)(F)F)cc2)[C@H]2CCC[C@H]21` ?
8.64

Here is the next compound: `O=C(O)CCC(=O)N(C1CC1)[C@H]1c2cc(C(F)F)ccc2N(C(=O)c2ccc(OC(F)(F)F)cc2)[C@H]2CCC[C@H]21`
7.85
